inhibition overview
SYSTEM_NAME: Huntingtin (Homo sapiens) (UniProt P42858)
Sequence (P42858 whole entry, looked up, stated change not applied): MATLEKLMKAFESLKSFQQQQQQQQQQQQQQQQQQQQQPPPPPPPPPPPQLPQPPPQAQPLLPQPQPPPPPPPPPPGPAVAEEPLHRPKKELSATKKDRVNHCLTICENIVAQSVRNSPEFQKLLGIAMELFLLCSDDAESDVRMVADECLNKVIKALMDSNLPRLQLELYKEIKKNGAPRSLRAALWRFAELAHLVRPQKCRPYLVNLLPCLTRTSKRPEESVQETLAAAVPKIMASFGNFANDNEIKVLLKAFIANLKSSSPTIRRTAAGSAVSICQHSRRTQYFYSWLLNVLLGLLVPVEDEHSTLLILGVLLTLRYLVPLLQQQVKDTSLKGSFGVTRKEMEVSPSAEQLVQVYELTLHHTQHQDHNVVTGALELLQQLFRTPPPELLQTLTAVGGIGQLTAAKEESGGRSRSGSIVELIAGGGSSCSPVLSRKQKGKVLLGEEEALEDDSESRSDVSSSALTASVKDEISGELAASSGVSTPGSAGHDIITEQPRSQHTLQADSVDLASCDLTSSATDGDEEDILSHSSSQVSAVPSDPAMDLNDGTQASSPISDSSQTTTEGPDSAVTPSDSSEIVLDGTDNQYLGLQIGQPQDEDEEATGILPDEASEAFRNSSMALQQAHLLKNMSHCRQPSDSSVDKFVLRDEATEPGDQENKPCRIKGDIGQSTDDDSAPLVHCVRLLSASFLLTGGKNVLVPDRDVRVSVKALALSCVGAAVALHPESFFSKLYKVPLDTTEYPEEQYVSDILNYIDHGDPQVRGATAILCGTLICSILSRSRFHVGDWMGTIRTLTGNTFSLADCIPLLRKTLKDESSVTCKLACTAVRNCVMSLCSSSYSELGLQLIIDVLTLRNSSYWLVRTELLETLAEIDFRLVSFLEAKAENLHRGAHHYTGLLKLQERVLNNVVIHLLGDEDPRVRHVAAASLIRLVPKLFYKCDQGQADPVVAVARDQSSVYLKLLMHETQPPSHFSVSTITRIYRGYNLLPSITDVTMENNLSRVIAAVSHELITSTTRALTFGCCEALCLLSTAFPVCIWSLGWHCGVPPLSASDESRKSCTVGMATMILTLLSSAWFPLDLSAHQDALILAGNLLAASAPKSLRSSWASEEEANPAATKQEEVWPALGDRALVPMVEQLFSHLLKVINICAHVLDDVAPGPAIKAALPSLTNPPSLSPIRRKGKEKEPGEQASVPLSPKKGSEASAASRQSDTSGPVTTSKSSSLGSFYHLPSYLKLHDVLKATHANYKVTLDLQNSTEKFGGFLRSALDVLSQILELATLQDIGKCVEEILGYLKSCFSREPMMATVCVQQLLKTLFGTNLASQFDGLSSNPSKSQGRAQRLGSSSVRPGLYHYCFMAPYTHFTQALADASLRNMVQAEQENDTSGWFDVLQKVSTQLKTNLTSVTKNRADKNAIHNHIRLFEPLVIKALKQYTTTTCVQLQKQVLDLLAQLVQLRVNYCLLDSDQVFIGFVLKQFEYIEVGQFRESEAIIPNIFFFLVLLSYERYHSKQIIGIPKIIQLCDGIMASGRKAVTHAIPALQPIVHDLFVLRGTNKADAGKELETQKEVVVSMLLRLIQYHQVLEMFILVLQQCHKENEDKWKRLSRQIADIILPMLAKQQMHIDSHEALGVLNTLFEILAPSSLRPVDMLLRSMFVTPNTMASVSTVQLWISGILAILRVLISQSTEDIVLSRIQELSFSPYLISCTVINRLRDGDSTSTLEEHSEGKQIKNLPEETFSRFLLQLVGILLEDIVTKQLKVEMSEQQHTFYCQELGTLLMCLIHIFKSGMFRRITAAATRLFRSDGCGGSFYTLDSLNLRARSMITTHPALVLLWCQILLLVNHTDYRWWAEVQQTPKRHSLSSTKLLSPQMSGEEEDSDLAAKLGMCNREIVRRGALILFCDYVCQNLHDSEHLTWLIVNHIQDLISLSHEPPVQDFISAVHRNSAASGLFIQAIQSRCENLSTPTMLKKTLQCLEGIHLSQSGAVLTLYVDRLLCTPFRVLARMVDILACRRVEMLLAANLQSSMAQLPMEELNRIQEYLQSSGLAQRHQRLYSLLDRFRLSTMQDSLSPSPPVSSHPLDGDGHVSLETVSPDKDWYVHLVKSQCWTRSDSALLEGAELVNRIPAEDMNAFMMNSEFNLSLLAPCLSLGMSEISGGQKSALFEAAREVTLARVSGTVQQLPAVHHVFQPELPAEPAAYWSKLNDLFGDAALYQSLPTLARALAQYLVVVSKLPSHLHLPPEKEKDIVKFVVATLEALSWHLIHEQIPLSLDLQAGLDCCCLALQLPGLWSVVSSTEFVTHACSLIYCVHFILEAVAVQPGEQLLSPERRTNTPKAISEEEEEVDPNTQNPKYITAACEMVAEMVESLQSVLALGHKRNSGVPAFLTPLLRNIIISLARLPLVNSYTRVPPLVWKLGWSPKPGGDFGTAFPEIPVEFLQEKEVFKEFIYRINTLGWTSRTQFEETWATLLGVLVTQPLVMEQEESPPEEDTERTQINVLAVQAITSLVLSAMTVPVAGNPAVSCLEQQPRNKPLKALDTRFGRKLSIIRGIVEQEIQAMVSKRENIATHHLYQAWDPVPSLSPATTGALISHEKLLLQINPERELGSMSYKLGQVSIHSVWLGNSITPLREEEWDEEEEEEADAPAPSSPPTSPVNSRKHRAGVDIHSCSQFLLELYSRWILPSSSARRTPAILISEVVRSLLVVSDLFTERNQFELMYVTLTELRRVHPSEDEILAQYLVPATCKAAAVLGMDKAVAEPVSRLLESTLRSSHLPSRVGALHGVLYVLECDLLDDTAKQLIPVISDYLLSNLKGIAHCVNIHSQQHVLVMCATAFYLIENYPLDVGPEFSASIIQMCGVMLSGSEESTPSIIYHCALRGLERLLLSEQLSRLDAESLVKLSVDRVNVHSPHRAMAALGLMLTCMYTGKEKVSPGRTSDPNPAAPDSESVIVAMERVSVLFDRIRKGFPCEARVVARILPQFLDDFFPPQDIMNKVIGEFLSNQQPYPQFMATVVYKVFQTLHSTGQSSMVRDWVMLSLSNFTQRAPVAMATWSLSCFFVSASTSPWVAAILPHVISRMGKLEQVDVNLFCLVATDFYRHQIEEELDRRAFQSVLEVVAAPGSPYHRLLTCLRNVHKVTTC
EXPERIMENT_NOTES: mutant huntingtin-calmodulin interaction inhibitors – biochemical, AlphaScreen, primary screen (AID 1671202);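 also: 0% = both proteins with DMSO and 100% = one protein alone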
PROTOCOL_CONDITIONS: AlphaScreen His-mHTT/GST-CaM binding, luminescence; at 15 µM, hits give high values
Among all 190,000 compounds or so, about 6,900 (3.6%) were called active. The entries come from a sample that favours actives as a whole.

COMPOUND	inhibition
COc1ccc(/C=C2/C(=O)N(c3ccccc3)N=C2C)c(OC)c1	25% (inactive)
COc1ccc(NC(=O)c2ccc(OC)cc2)cc1	-2% (inactive)
COc1cc(/C=C2/C(=O)N(c3ccc(Cl)c(Cl)c3)N=C2C)cc(Br)c1O	75% (active)
O=C1CC(O)(C(F)(F)F)Oc2ccc(Cl)cc21 (stereo not given)	0% (inactive)
O=C(NCCN1CCOCC1)Nc1cccc(Cl)c1	-4% (inactive)
CSCCC(NS(=O)(=O)c1cccs1)C(=O)O (stereo not given)	-3.2% (inactive)
CCc1ccc(NC(=O)CN2C(=O)C(c3ccccc3)=NC23CCCCC3)cc1	-7.57% (inactive)
Cc1cccc(-c2nc(C3CCN(C(=O)Cc4ccccc4Br)CC3)no2)c1	-7.4% (inactive)
O=C(CN1C(=O)C(c2ccccc2)=NC12CCCCC2)Nc1ccc(Cl)cc1	50.9% (active)
CCCCN(CC)S(=O)(=O)c1ccc(Cl)cc1	-36.2% (inactive)

---

SYSTEM_NAME: Huntingtin (Homo sapiens)
EXPERIMENT_NOTES: mutant huntingtin-calmodulin interaction inhibitors – biochemical, AlphaScreen, primary screen (AID 1671202);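 also: 0% = both proteins with DMSO and 100% = one protein alone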
PROTOCOL_CONDITIONS: AlphaScreen His-mHTT/GST-CaM binding, luminescence; at 15 µM
The whole screen tested about 190,000 compounds, of which about 6,900 (3.6%) were called active. Cut-off read from the data, not from the text of the source: active = inhibition above about 50%; inactive = the rest. The list comes from a sample in which actives are over-represented; it also holds close analogues and randomly drawn compounds.
Classes used: y for active, n for inactive

COMPOUND	SYSTEM_NAME	GROUP_LABEL
Clc1ccc2[nH]c3c(c2c1)CCCC3NCCOc1ccccc1 (centres undefined)	Huntingtin (Homo sapiens)	y
Cc1ccc([C@H]2C[C@H](O)[C@@H](n3cc(COC(=O)c4ccccc4)nn3)CN2CC2CCCCC2)cc1	Huntingtin (Homo sapiens)	n
CSC1=N/C(=C\c2ccc3c(c2)OCO3)C(=O)S1	Huntingtin (Homo sapiens)	n
Cc1cccc(-c2csc3c(=O)n(Cc4ccc(F)cc4)cnc23)c1	Huntingtin (Homo sapiens)	n

---

SYSTEM_NAME: Huntingtin (Homo sapiens) (UniProt P42858)
EXPERIMENT_NOTES: mutant huntingtin-calmodulin interaction inhibitors – biochemical, AlphaScreen, primary screen (AID 1671202);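 also: 0% = both proteins with DMSO and 100% = one protein alone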
PROTOCOL_CONDITIONS: AlphaScreen His-mHTT/GST-CaM binding, luminescence; at 15 µM, hits give high values
Among all 190,000 compounds or so, about 6,900 (3.6%) were called active. Many of the other results were omitted from the sample, so actives are more common in it than they were.
inhibition overview
PROPERTY_NAME: inhibition (%)

CHEMICAL_STRING	NUMBER
N#Cc1cccc(CN2CCC(=O)N([C@H](CO)c3ccccc3)CC2)c1	0.1
C=C(C)CN(CC)Cc1cccc(OC)c1OC	-4.5
CN1CCC(NC(=O)C2CCN(c3nc4ccc(-c5ccsc5)nc4s3)CC2)CC1	70.8
CN(C)C(=O)C1CCN(c2nc3ccc(-c4cccc(F)c4)nc3s2)CC1	0.2
CC(C)c1nc2c(NC(=O)C3CC3)cccn2n1	-7.5
C[C@H]1CCC(=O)N([C@H](CSc2ccccc2)Cc2ccccc2)CC1	-8.3
